Where do the numbers come from? From patent US20240270821A1.

Target: human glucagon receptor (human) (UniProt P47871)
Sequence (P47871 26-477): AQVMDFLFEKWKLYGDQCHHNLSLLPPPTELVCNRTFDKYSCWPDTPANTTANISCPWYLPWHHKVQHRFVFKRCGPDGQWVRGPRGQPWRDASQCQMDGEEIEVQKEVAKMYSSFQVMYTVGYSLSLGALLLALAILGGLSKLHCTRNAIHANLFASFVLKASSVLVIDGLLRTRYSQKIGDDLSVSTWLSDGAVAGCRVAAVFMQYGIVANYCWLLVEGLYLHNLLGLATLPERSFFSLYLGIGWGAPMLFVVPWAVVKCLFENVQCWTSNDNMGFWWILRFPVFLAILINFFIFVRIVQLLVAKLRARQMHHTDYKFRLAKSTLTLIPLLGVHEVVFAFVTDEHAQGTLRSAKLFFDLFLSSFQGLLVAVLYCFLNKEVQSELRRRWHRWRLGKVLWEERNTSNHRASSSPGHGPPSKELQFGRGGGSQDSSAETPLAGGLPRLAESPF
Test: cell-based or functional assay
Starred links: 1 amine or outer side, 2 acyl side, 3 side chain; linkers in the order of their positions; H or OH if unused. Non-standard residues stand in square brackets, D forms with d. Groups on a side chain read outwards from the residue. No end group written: not given here. *: point of attachment. C18 diacid = O=C(O)CCCCCCCCCCCCCCCCC(=O)*; γGlu = O=C(O)[C@H](CCC(=O)[*:2])N[*:1]; αMeL = CC(C)C[C@](C)(N)C(=O)O; Dab = NCC[C@H](N)C(=O)O; AEEA = NCCOCCOCC(=O)O; Aib = CC(C)(N)C(=O)O
Reported Endpoint: cAMP Rel EC50, nM (in the presence of 1% HSA) (nM)
The reply should contain only the number, in nM.

Reference set, count: 5
[[record]]
binder = "Y[Aib]QGTFTSDFS[Dab][αMeL]LDKK([AEEA-γGlu-C18 diacid])AQ[Aib]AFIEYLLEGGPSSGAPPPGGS-NH2 [Example 67]"
observed_result = 781

[[record]]
binder = "YXQGTFTSDFSRXLDKKAQXAFIEYLLAGGPSSGAPPPSGS (synthetic construct; SITE 2: note = 2-Aminoisobutyric Acid; SITE 13: note = alpha-methyl-leucine; SITE 17: note = Lysine is chemically modified through conjugation of the epsilon-amino group of the Lysine side chain with (2-[2-(2-Amino-ethoxy)-ethoxy]-acetyl)-(gamma-Glu)-CO-(CH2) 18-CO2H; SITE 20: n) [Example 77]"
observed_result = 2610

[[record]]
binder = "YXQGTFTSDFSXXLDKKAQXAFIEYLLEAGPSSGAPPPSGE (synthetic construct; SITE 2: note = 2-Aminoisobutyric Acid; SITE 12: note = L-ornithine; SITE 13: note = alpha-methyl-leucine; SITE 17: note = Lysine is chemically modified through conjugation of the epsilon-amino group of the Lysine side chain with (2-[2-(2-Amino-ethoxy)-ethoxy]-acetyl)2-(gamma-Glu)) [Example 128]"
observed_result = 1090

[[record]]
binder = "YXQGTFTSDFSXXLDKKAQXAFIEYLLAGGPSSGAPPPEGS (synthetic construct; SITE 2: note = 2-Aminoisobutyric Acid; SITE 12: note = L-ornithine; SITE 13: note = alpha-methyl-leucine; SITE 17: note = Lysine is chemically modified through conjugation of the epsilon-amino group of the Lysine side chain with (2-[2-(2-Amino-ethoxy)-ethoxy]-acetyl)-(gamma-Glu)) [Example 93]"
observed_result = 1390

[[record]]
binder = "YXQGTFTSDFSXXLDKKAQXAFIEYLLAGGPSSGAPPPEGE (synthetic construct; SITE 2: note = 2-Aminoisobutyric Acid; SITE 12: note = L-ornithine; SITE 13: note = alpha-methyl-leucine; SITE 17: note = Lysine is chemically modified through conjugation of the epsilon-amino group of the Lysine side chain with (2-[2-(2-Amino-ethoxy)-ethoxy]-acetyl)-(gamma-Glu)) [Example 99]"
observed_result = 1130


Okay, now this binder:
**Query** Give its cAMP Rel EC50, nM (in the presence of 1% HSA) value. Item: YXQGTFTSDFSXXLDKKAQXAFIEYLLEGGPSSGEPPPSGS (synthetic construct; SITE 2: note = 2-Aminoisobutyric Acid; SITE 12: note = L-ornithine; SITE 13: note = alpha-methyl-leucine; SITE 17: note = Lysine is chemically modified through conjugation of the epsilon-amino group of the Lysine side chain with (2-[2-(2-Amino-ethoxy)-ethoxy]-acetyl)-(gamma-Glu)) [Example 131]
**Result** 976
